- TEST_SUMMARY: PK of Bortezomib and butylphthalide in plasma of MM.1S tumor-bearing mice (Example 8)
- Type: in vivo, Nu/Nu mice
- PARTICULARS: Nu/Nu, mouse, plasma, po; NBP 60 mg/kg gavage, Bor 0.5 mg/kg, Pal 70 mg/kg; mean ± SD, n=6; read-out: Cmax of NBP in plasma
OBSERVABLE: Cmax (ng/mL)
Reply numerically in ng/mL, unit not repeated.

Quick note, Cmax for CCCCC1OC(=O)c2ccccc21 (stereo not shown) [NBP, 3-n-butylphthalide] landed at 117

###

- TEST_SUMMARY: PK of Bortezomib and butylphthalide in plasma of MM.1S tumor-bearing mice (Example 8)
- Format: in vivo, Nu/Nu mice
- PARTICULARS: Nu/Nu, mouse, plasma, po; NBP 60 mg/kg gavage, Bor 0.5 mg/kg, Pal 70 mg/kg; mean ± SD, n=6; read-out: AUC0-t of NBP in plasma
OBSERVABLE: AUC(0-t) (ng·h/mL)
Reply numerically in ng·h/mL, unit not repeated.

Quick note, AUC(0-t) for CCCCC1OC(=O)c2ccccc21 (stereo not shown) [NBP, 3-n-butylphthalide] landed at 236

###

- TEST_SUMMARY: PK of Bortezomib and butylphthalide in plasma of MM.1S tumor-bearing mice (Example 8)
- Format: in vivo, Nu/Nu mice
- PARTICULARS: Nu/Nu, mouse, plasma, po; NBP 60 mg/kg gavage, Bor 0.5 mg/kg, Pal 70 mg/kg; mean ± SD, n=6; read-out: t1/2 of NBP in plasma (converted)
OBSERVABLE: half-life (h)
Reply numerically in h, unit not repeated.

Quick note, half-life for CCCCC1OC(=O)c2ccccc21 (stereo not shown) [NBP, 3-n-butylphthalide] landed at 10.1

###

- TEST_SUMMARY: PK of Bortezomib and butylphthalide in plasma of MM.1S tumor-bearing mice (Example 8)
- Type: in vivo, Nu/Nu mice
- PARTICULARS: Nu/Nu, mouse, plasma, po; NBP 60 mg/kg gavage, Bor 0.5 mg/kg, Pal 70 mg/kg; mean ± SD, n=6; read-out: MRT0-t of NBP
OBSERVABLE: MRT last (h)
Reply numerically in h, unit not repeated.

Quick note, MRT last for CCCCC1OC(=O)c2ccccc21 (stereo not shown) [NBP, 3-n-butylphthalide] landed at 3.1

###

- TEST_SUMMARY: PK of Bortezomib and butylphthalide in plasma of MM.1S tumor-bearing mice (Example 8)
- Type: in vivo, Nu/Nu mice
- PARTICULARS: Nu/Nu, mouse, plasma, ip; Bor 0.5 mg/kg i.p., Pal 70 mg/kg, NBP 60 mg/kg; mean ± SD, n=6; read-out: AUC0-t of Bortezomib in plasma
OBSERVABLE: AUC(0-t) (ng·h/mL)
Reply numerically in ng·h/mL, unit not repeated.

Quick note, AUC(0-t) for CC(C)C[C@H](NC(=O)[C@H](Cc1ccccc1)NC(=O)c1cnccn1)B(O)O landed at 290

###

- System: MM.1S, Jeko-1, HT29, A549, DU145
- TEST_SUMMARY: In vitro proliferation of 5 cell strains, summary statements (Example 7)
- Assay type: cell-based, Human
- PARTICULARS: Homo sapiens; range over MM.1S, Jeko-1, HT29, A549, DU145; combined therapy with 30 μM NBP
OBSERVABLE: IC50

Quick note, IC50 for CC(C)C[C@H](NC(=O)[C@H](Cc1ccccc1)NC(=O)c1cnccn1)B(O)O landed at 1 to 20 nM

###

- TEST_SUMMARY: PK of Bortezomib and butylphthalide in plasma of MM.1S tumor-bearing mice (Example 8)
- Type: in vivo, Nu/Nu mice
- PARTICULARS: Nu/Nu, mouse, plasma, ip; after last Bortezomib dose; Bor 0.5 mg/kg i.p., Pal 70 mg/kg, NBP 60 mg/kg; mean ± SD, n=6; read-out: Cmax of Bortezomib in plasma
OBSERVABLE: Cmax (ng/mL)
Reply numerically in ng/mL, unit not repeated.

Quick note, Cmax for CC(C)C[C@H](NC(=O)[C@H](Cc1ccccc1)NC(=O)c1cnccn1)B(O)O [Bortezomib] landed at 113
